// values below are reported pEC50
- Study System: MOR (Homo sapiens)
- Construct: host or cells: CHO (CHO-hMOR)
- Sequence (P35372 whole entry): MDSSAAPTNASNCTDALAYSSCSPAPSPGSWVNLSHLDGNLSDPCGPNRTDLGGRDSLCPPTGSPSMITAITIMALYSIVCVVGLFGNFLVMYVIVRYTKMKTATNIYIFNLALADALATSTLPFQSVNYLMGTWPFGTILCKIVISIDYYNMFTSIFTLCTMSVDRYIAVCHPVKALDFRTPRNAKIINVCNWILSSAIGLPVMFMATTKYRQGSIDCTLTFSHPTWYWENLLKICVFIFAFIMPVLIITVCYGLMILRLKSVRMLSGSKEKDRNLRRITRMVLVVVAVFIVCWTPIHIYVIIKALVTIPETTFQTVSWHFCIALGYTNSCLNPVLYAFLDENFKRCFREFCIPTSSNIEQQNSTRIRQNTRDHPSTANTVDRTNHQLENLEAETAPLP
- Test Details: [35S]GTPγS binding assay, CHO-hMOR membranes
- Format: biochemical
- Experimental: Efficacies are presented as percentage stimulation relative to the standard full agonists, [D-Ala^2,N-Me-Phe4,Gly-ol^5]enkephalin (DAMGO for MOR),[53] […] Membranes from CHO cells expressing human opioid receptors were prepared in 50 mM Tris-HCl buffer (pH 7.7) according to a previously described procedure.[64] […] Protein content of brain and cell membrane preparation homogenates was determined by the method of Bradford using bovine serum albumin as the standard.[65] […]
pEC50: −log10 of the molar value.
Assay Endpoint: pEC50

* CO[C@@]12CC[C@@H](NCC(=O)O)[C@@H]3Oc4c(O)ccc5c4[C@@]31CCN(C)[C@@H]2C5 [Compound 2b] | 8.42
* CO[C@@]12CC[C@@H](N[C@H](Cc3ccccc3)C(=O)O)[C@@H]3Oc4c(O)ccc5c4[C@@]31CCN(C)[C@@H]2C5 [Compound 17b] | > 9.00
* CO[C@@]12CC[C@H](N[C@@H](CC(N)=O)C(=O)O)[C@@H]3Oc4c(O)ccc5c4[C@@]31CCN(C)[C@@H]2C5 [Compound 11a] | > 9.00
* CO[C@@]12CC[C@H](N[C@H](Cc3ccccc3)C(=O)O)[C@@H]3Oc4c(O)ccc5c4[C@@]31CCN(C)[C@@H]2C5 [Compound 17a] | > 9.00
* CO[C@@]12CC[C@H](N[C@@H](Cc3ccccc3)C(=O)O)[C@@H]3Oc4c(O)ccc5c4[C@@]31CCN(C)[C@@H]2C5 [Compound 4a] | > 9.00

* * *

// values below are reported Emax
- Study System: KOR (Homo sapiens, UniProt P41145)
- Construct: host or cells: CHO (CHO-hKOR)
- Sequence (P41145 whole entry): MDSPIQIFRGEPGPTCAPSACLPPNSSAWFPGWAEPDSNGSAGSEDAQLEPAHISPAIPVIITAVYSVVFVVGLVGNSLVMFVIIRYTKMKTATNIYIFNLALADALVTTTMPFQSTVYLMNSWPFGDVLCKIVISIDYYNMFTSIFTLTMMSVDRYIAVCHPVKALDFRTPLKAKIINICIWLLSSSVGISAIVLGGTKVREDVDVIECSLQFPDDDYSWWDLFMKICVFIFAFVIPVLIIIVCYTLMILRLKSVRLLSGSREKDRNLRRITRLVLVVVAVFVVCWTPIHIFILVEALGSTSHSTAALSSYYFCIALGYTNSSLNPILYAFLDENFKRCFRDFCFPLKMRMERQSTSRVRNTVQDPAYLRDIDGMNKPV
- Test Details: [35S]GTPγS binding assay, CHO-hKOR membranes
- Type: biochemical
- Reported Conditions: relative to reference full agonist U69,593; read-out: KOR % stim.
- Description: Efficacies are presented as percentage stimulation relative to the standard full agonists, [D-Ala^2,N-Me-Phe4,Gly-ol^5]enkephalin (DAMGO for MOR),[53] […] Membranes from CHO cells expressing human opioid receptors were prepared in 50 mM Tris-HCl buffer (pH 7.7) according to a previously described procedure.[64] […] Protein content of brain and cell membrane preparation homogenates was determined by the method of Bradford using bovine serum albumin as the standard.[65] […]
Assay Endpoint: Emax (%)

* CO[C@@]12CC[C@H](N[C@@H](C(=O)O)C(C)C)[C@@H]3Oc4c(O)ccc5c4[C@@]31CCN(C)[C@@H]2C5 [Compound 16a] | 96
* CO[C@@]12CCC(N[C@@H](CCC(=O)O)C(=O)O)[C@@H]3Oc4c(O)ccc5c4[C@@]31CCN(C)[C@@H]2C5 (stereo in doubt) [Compound 14a] | 68
* CO[C@@]12CC[C@@H](N[C@@H](CCC(N)=O)C(=O)O)[C@@H]3Oc4c(O)ccc5c4[C@@]31CCN(C)[C@@H]2C5.Cl.Cl [Compound 12b] | 63
* CO[C@@]12CC[C@H](NCCCC(=O)O)[C@@H]3Oc4c(O)ccc5c4[C@@]31CCN(C)[C@@H]2C5 [Compound 21a] | 104
* CO[C@@]12CC[C@H](N[C@@H](CO)C(=O)O)[C@@H]3Oc4c(O)ccc5c4[C@@]31CCN(C)[C@@H]2C5 | 44
* CO[C@@]12CC[C@@H](N[C@@H](C)C(=O)O)[C@@H]3Oc4c(O)ccc5c4[C@@]31CCN(C)[C@@H]2C5 | 64
* CC[C@H](N[C@@H]1CC[C@@]2(OC)[C@H]3Cc4ccc(O)c5c4[C@@]2(CCN3C)[C@H]1O5)C(=O)O [Compound 19b] | 72
* CO[C@@]12CC[C@H](N[C@@H](Cc3c[nH]c4ccccc34)C(=O)O)[C@@H]3Oc4c(O)ccc5c4[C@@]31CCN(C)[C@@H]2C5 [Compound 10a] | 61
* CO[C@@]12CC[C@@H](NCC(=O)NCC(=O)O)[C@@H]3Oc4c(O)ccc5c4[C@@]31CCN(C)[C@@H]2C5 [Compound 23a] | 75
* CO[C@@]12CC[C@@H](NCCCC(=O)O)[C@@H]3Oc4c(O)ccc5c4[C@@]31CCN(C)[C@@H]2C5 [Compound 21b] | 74
* CO[C@@]12CC[C@H](N[C@@H](CCCCN)C(=O)O)[C@@H]3Oc4c(O)ccc5c4[C@@]31CCN(C)[C@@H]2C5 | 79
* CO[C@@]12CC[C@@H](NCCC(=O)O)[C@@H]3Oc4c(O)ccc5c4[C@@]31CCN(C)[C@@H]2C5 [Compound 20b] | 67
* CO[C@@]12CC[C@@H](N[C@@H](C(=O)O)C(C)C)[C@@H]3Oc4c(O)ccc5c4[C@@]31CCN(C)[C@@H]2C5 [Compound 16b] | 98
* CO[C@@]12CC[C@H](N[C@H](Cc3ccccc3)C(=O)O)[C@@H]3Oc4c(O)ccc5c4[C@@]31CCN(C)[C@@H]2C5 [Compound 17a] | 80
* CO[C@@]12CC[C@H](N[C@@H](C)C(=O)O)[C@@H]3Oc4c(O)ccc5c4[C@@]31CCN(C)[C@@H]2C5 | 51
* CO[C@@]12CC[C@@H](NCC(=O)O)[C@@H]3Oc4c(O)ccc5c4[C@@]31CCN(C)[C@@H]2C5 | 82
* CO[C@@]12CC[C@@H](N[C@@H](Cc3c[nH]c4ccccc34)C(=O)O)[C@@H]3Oc4c(O)ccc5c4[C@@]31CCN(C)[C@@H]2C5 [Compound 10b] | 87
* CO[C@@]12CC[C@@H](N[C@@H](Cc3ccccc3)C(=O)O)[C@@H]3Oc4c(O)ccc5c4[C@@]31CCN(C)[C@@H]2C5 | 81
* CO[C@@]12CC[C@H](N[C@@H](CCC(N)=O)C(=O)O)[C@@H]3Oc4c(O)ccc5c4[C@@]31CCN(C)[C@@H]2C5 [Compound 12a] | 70
* CO[C@@]12CC[C@H](N[C@@H](Cc3ccc(O)cc3)C(=O)O)[C@@H]3Oc4c(O)ccc5c4[C@@]31CCN(C)[C@@H]2C5.Cl.Cl | 62
* CO[C@@]12CC[C@H](N[C@@H](CC(N)=O)C(=O)O)[C@@H]3Oc4c(O)ccc5c4[C@@]31CCN(C)[C@@H]2C5 [Compound 11a] | 67
* CO[C@@]12CC[C@@H](NC(C)C(=O)O)[C@@H]3Oc4c(O)ccc5c4[C@@]31CCN(C)[C@@H]2C5 (stereo in doubt) [Compound 15b] | 86
* CO[C@@]12CC[C@H](N[C@H](C(=O)N[C@@H](Cc3ccc(O)cc3)C(=O)O)C(C)C)[C@@H]3Oc4c(O)ccc5c4[C@@]31CCN(C)[C@@H]2C5 [Compound 22a] | 50
* CO[C@@]12CC[C@H](N[C@H](C(=O)O)C3CCCCC3)[C@@H]3Oc4c(O)ccc5c4[C@@]31CCN(C)[C@@H]2C5 [Compound 18a] | 52
* CO[C@@]12CC[C@@H](N[C@@H](CCCCN)C(=O)O)[C@@H]3Oc4c(O)ccc5c4[C@@]31CCN(C)[C@@H]2C5 | 62
